Each recorded value in this set is attributed to PubChem BioAssay AID330.

test system: P388 leukemia ip, CD2F1 mice, survival T/C; test: NCI In Vivo Anticancer Drug Screen. Data for tumor model P388 Leukemia (intraperitoneal) in CD2F1 (CDF1) mice; details: endpoint: median survival time; dose: 25.0 mg/kg/injection; schedule: Q04DX003 (ip); vehicle: Klucel (hydroxypropylcellulose) (HPC); higher = longer survival
Inconclusive results and toxic doses are left out.
# reported T/C; entries follow

Field: example entries. Status: answers known.
| molecule | T/C |
| --- | --- |
| CCN(CC)N=Nc1ccc(NC(C)=O)cc1 | 102 % of control |
| CC1/C(=N/Nc2ccc([N+](=O)[O-])cc2)CC2C3(C)CCC2(C(C)C(=O)O)C(=O)C13 (centres undefined) | 92 % of control |
| N#Cc1cnc2n(c1=N)CCCCC2 | 102 % of control |

Okay, next one:
Q) Given the molecule `CCCCCCCCCCCCCCCCCC(=O)[O][Pb]([CH3])([CH3])[CH3]` , what is its reported T/C?
A) 92 % of control
